Listing of recorded CLint scaled by entry.
experiment: Clearance in dog liver microsomes; assay type: ADME, Canis lupus familiaris, Microsome

| SMILES_NOTATION | CLint scaled [mL/min/kg] |
| --- | --- |
| CS(=O)(=O)c1ccc(C(=O)Nc2ccc(Cl)c(-c3ccccn3)c2)cc1 | 1.4 |
| Cc1nc(C(F)(F)F)ccc1C(=O)Nc1ccc(Cl)c(-c2nc3ccccc3[nH]2)c1 | 124 |
| Cc1nc(C(F)(F)F)ccc1C(=O)Nc1ccc(Cl)c(-c2ccccn2)c1 | 1.9 |
| Cc1nc(C(F)(F)F)ccc1C(=O)Nc1ccc(Cl)c(-c2cnc3ccccc3n2)c1 | 7.4 |
| CS(=O)(=O)c1ccc(C(=O)Nc2ccc(Cl)c(-c3ccccn3)c2)c(Cl)c1 | 0.4 |

====

assay: Fraction unbound in human Calu6 cells xenografted in nude mouse plasma at 75 mg/kg, po bid measured after 4 hrs post fifth dose; format: ADME, organism-based, Calu-6; design: dose 75 mg/kg, route oral; conditions: nude, plasma

| SMILES_NOTATION | fraction unbound at 4 h |
| --- | --- |
| CS(=O)(=O)c1ccc(C(=O)Nc2ccc(Cl)c(-c3ccccn3)c2)cc1 | 0.03 |

====

assay: Aqueous solubility at pH 6.5; assay type: physicochemical
Listing of recorded solubility by entry.

| SMILES_NOTATION | UNITS | solubility |
| --- | --- | --- |
| Cc1nc(C(F)(F)F)ccc1C(=O)Nc1ccc(Cl)c(-c2cnc3ccccc3n2)c1 | µg/mL | 0.1 |
| Cc1nc(C(F)(F)F)ccc1C(=O)Nc1ccc(Cl)c(-c2nc3ccccc3[nH]2)c1 | µg/mL | 0.3 |
| CS(=O)(=O)c1ccc(C(=O)Nc2ccc(Cl)c(-c3ccccn3)c2)c(Cl)c1 | µg/mL | 9.5 |
| CS(=O)(=O)c1ccc(C(=O)Nc2ccc(Cl)c(-c3ccccn3)c2)cc1 | µg/mL | 0.5 |
| Cc1nc(C(F)(F)F)ccc1C(=O)Nc1ccc(Cl)c(-c2ccccn2)c1 | µg/mL | 1.8 |

====

assay: Plasma concentration in human Calu6 cells xenografted in nude mouse at 75 mg/kg, po bid measured after 4 hrs post fifth dose; assay type: ADME, organism-based, Calu-6; parameters: dose 75 mg/kg, route oral

| SMILES_NOTATION | concentration at 4 h (µM) |
| --- | --- |
| CS(=O)(=O)c1ccc(C(=O)Nc2ccc(Cl)c(-c3ccccn3)c2)c(Cl)c1 | 23 |
| Cc1nc(C(F)(F)F)ccc1C(=O)Nc1ccc(Cl)c(-c2ccccn2)c1 | 0.86 |
| CS(=O)(=O)c1ccc(C(=O)Nc2ccc(Cl)c(-c3ccccn3)c2)cc1 | 14 |

====

assay: Clearance in rat liver microsomes; assay type: ADME, Microsome
Listing of recorded CLint scaled by entry.
ASSAY_READOUT: CLint scaled (mL/min/kg)

| SMILES_NOTATION | TEST_VALUE |
| --- | --- |
| Cc1nc(C(F)(F)F)ccc1C(=O)Nc1ccc(Cl)c(-c2nc3ccccc3[nH]2)c1 | 3 |
| Cc1nc(C(F)(F)F)ccc1C(=O)Nc1ccc(Cl)c(-n2cc3ccccc3n2)c1 | 99.3 |
| CS(=O)(=O)c1ccc(C(=O)Nc2ccc(Cl)c(-c3ccccn3)c2)cc1 | 1.2 |
| CS(=O)(=O)c1ccc(C(=O)Nc2ccc(Cl)c(-c3ccccn3)c2)c(Cl)c1 | 3.7 |
| Cc1nc(C(F)(F)F)ccc1C(=O)Nc1ccc(Cl)c(-c2cnc3ccccc3n2)c1 | 10.7 |
| Cc1nc(C(F)(F)F)ccc1C(=O)Nc1ccc(Cl)c(-c2ccccn2)c1 | 4.5 |
